Just for reference, ChEMBL document CHEMBL1201862 is where these values come from.

Tested on: COLO 205
Assay: NCI tumour cell line growth inhibition, 48 h
Active and inactive are the calls of the source. No stated cut-off is given here; in the data, active = GI50 up to about 1.1 µM and inactive = higher. Square brackets hold non-standard residues; d marks the D form. Peptide text beside a SMILES is read from it. * marks the point of attachment. ξ: configuration not given here. NMeN = CN[C@@H](CC(N)=O)C(=O)O; NMeV = CN[C@H](C(=O)O)C(C)C; ξNMeV = CNC(C(=O)O)C(C)C; Boc = CC(C)(C)OC(=O)*; ξNMeA = CNC(C)C(=O)O
Field: GI50. Provide a value for each of the molecules that follow.

# returns recorded GI50 (system: COLO 205) for S=c1nc2c(c[nH]1)C1c3ccccc3C2c2ccccc21
88.7 µM (inactive)

Recorded GI50 for Nc1ncnc2c1ncn2CC(O)CO (centres undefined) with COLO 205, please?
> 100 µM (inactive)

Request - read-out GI50 | tested on COLO 205 | molecule COc1cc2c(c3c1c(=O)c1ccccc1n3C)C=CC1(CCCC1)O2
13.6 µM (inactive)

Form entry - test system: COLO 205; read-out: GI50; molecule: Cc1nc(N)nn1C1OCC(O)C(O)C1O (centres undefined)
> 100 µM (inactive)

Provide the documented GI50 with COLO 205 as the system for CCC1(c2ccccc2)Sc2ccccc2-n2cccc2C1=O (centres undefined)
> 10 µM (inactive)

Record lookup: for COLO 205, what GI50 belongs to CC(=O)C1(C(=O)C(=[N+]=[N-])S(=O)(=O)c2ccccc2)CC1 ?
> 100 µM (inactive)

Missing value: GI50, COLO 205, entry CCOC(=O)C1=COC(C)(c2ccccc2)CC1=O (centres undefined) . Fill in?
> 100 µM (inactive)

Report GI50 for O=C1NN=C(c2ccc([N+](=O)[O-])cc2)C1n1nc(-c2ccccc2)c2ccccc2c1=O (centres undefined) tested on COLO 205.
> 60.8 µM (inactive)

What value of GI50 on COLO 205 does NCCCN1CCN(CC(=O)O)CCN(CCCN)CCN(CC(=O)O)CC1 have?
33.7 µM (inactive)

Query the reported GI50 for COLO 205; item: O=C1NN=C2C=C(c3ccc(Cl)cc3)CC(c3cccc(Cl)c3)C12 (centres undefined)
16.8 µM (inactive)

Quick check: GI50 on COLO 205, item COC(=O)C(C)N(C)C(=O)[C@H](CC(N)=O)N(C)C(=O)[C@@H]1CCCN1C(=O)[C@H](C(C)C)N(C)C(=O)C(C(C)C)N(C)C(=O)[C@@H](NC(=O)OC(C)(C)C)C(C)C (some centres undefined) (Boc-V[ξNMeV][NMeV]P[NMeN][ξNMeA]-OMe) ?
> 50 µM (inactive)

Short answer please: GI50, COLO 205, entry Cc1noc2nnn(-c3ccc(Cl)cc3)c(=O)c12
2.96 µM (inactive)

Entry CC1=C(C(=O)Nc2ccc([N+](=O)[O-])cc2)C(c2cccc([N+](=O)[O-])c2)C(C(=O)Nc2ccc([N+](=O)[O-])cc2)=C(C)N1 , system COLO 205: what GI50 was measured?
45.8 µM (inactive)

Which measured GI50 belongs to Fc1c(F)c(F)c2c(c1F)CSc1nc3ccccc3n1-2 , tested on COLO 205?
> 100 µM (inactive)

Which measured GI50 belongs to COC(=O)c1c(C)[nH]c2c1cc(O)c1nc(C)c(C)nc12 , tested on COLO 205?
> 100 µM (inactive)

Give recorded GI50 with COLO 205 for the following molecule: O=[N+]([O-])c1ccc(/C(=C\c2ccccc2)Cn2ccnc2)cc1
15 µM (inactive)

Notebook: pull reported GI50 for COLO 205, entry Cc1occc1/C(S)=N\c1ccc(Cl)c(COC(C)(C)C)c1
15.7 µM (inactive)

Field: GI50 (COLO 205). Entry: Oc1cc(-c2c[nH]c3ccccc23)nc2cc3c(cc12)OCO3
> 100 µM (inactive)

Form field: GI50 recorded for O=C(CC(=O)N1N=C(N2CCCCC2)CC1c1ccccc1)Nc1ccc(Cl)cc1 (centres undefined) with COLO 205 (enter value)
> 100 µM (inactive)
